SYSTEM UNDER TEST: human σ1 receptor (Homo sapiens, UniProt Q99720)
Construct: expressed in transfected cells; host or cells: HEK-293
Sequence (Q99720 whole entry): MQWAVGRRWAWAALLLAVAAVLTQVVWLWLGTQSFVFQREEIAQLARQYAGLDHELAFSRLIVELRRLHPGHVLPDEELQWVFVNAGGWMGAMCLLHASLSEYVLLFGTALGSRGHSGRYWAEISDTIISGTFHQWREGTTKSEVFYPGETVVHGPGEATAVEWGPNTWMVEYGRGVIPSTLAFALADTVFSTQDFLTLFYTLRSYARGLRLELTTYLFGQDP
ASSAY COMMENT: Human σ1 receptor radioligand assay ([3H](+)-pentazocine)
Type: binding
ASSAY SETUP: transfected HEK-293 membranes, 5 nM [3H](+)-pentazocine, 37° C., 120 minutes; read-out: Binding σ-[…] (binding to σ1-receptor expressed as Ki)
Hi there, I'd appreciate the recorded Ki for every entry that follows.

# returns recorded Ki (system: human σ1 receptor (Homo sapiens, UniProt Q99720)) for CN(Cc1ccccc1)C1CCN(C(=O)N2CCc3ncccc32)CC1 < 100 nM

Field: Ki (human σ1 receptor (Homo sapiens, UniProt Q99720)). Entry: CC(C)CCN(C)[C@H]1CCCN(C(=O)N2CCc3ncccc32)C1 < 100 nM

Checklist item: Ki tested on human σ1 receptor (Homo sapiens, UniProt Q99720), entry CC1(C)CN(C(=O)N2CCC3(CCN(Cc4ccccc4F)CC3)C2)c2cccnc21 , value? < 100 nM

Find the measured Ki: item COc1cccc(CN(C)C2CCN(C(=O)N3CC(C)(C)c4nc(C)ccc43)CC2)c1 , target or system human σ1 receptor (Homo sapiens, UniProt Q99720). 500 to 1000 nM

Enter reported Ki observed with human σ1 receptor (Homo sapiens, UniProt Q99720) for Cc1ccc2c(n1)C(C)(C)CN2C(=O)N1CCC(N(C)Cc2cccc(S(C)(=O)=O)c2)CC1 > 1000 nM

Fill in the recorded Ki for this compound, with human σ1 receptor (Homo sapiens, UniProt Q99720) as test system: CN(Cc1ccccc1)[C@H]1CCCN(C(=O)N2CCc3ncccc32)C1 > 1000 nM

Lookup: Ki / human σ1 receptor (Homo sapiens, UniProt Q99720) / CC1(C)CN(C(=O)N2CCC3(CCN(Cc4cc(F)ccc4F)CC3)C2)c2cccnc21 < 100 nM

Please tell me: Ki of CC1(C)CN(C(=O)N2CCC3(CCN(Cc4ccc(C#N)c(F)c4)CC3)C2)c2cccnc21 , system human σ1 receptor (Homo sapiens, UniProt Q99720)? < 100 nM

API: value(readout=Ki, system=human σ1 receptor (Homo sapiens, UniProt Q99720)) for record Cc1ccc2c(n1)C(C)(C)CN2C(=O)N1CCC(N(C)Cc2ccc(F)cc2)CC1 100 to 500 nM

What value of Ki on human σ1 receptor (Homo sapiens, UniProt Q99720) does Cc1ccc2c(n1)C(C)(C)CN2C(=O)N1CCC(N(C)Cc2cccc(C(=O)N(C)C)c2)CC1 have? > 1000 nM

GET /values?readout=Ki&system=human σ1 receptor (Homo sapiens, UniProt Q99720)&item= CN(Cc1cc(F)ccc1F)[C@H]1CC[C@H](C(=O)N2CC(C)(C)c3ncccc32)CC1 < 100 nM

What reported Ki corresponds to Cc1ccc2c(n1)C(C)(C)CN2C(=O)[C@H]1CC[C@H](N(C)Cc2ccccc2)CC1 on human σ1 receptor (Homo sapiens, UniProt Q99720)? < 100 nM

Query the reported Ki for human σ1 receptor (Homo sapiens, UniProt Q99720); item: Cc1ccc2c(n1)C(C)(C)CN2C(=O)N1CC2(CN(Cc3ccccc3)C2)C1 < 100 nM

Quick check: Ki on human σ1 receptor (Homo sapiens, UniProt Q99720), item CC1(C)CN(C(=O)C2CN(Cc3ccccc3)C2)c2cccnc21 ? < 100 nM

Quick check: Ki on human σ1 receptor (Homo sapiens, UniProt Q99720), item Cc1ccc2c(n1)C(C)(C)CN2C(=O)NC1CCN(CC(C)C)CC1 ? 100 to 500 nM

Quick check: Ki on human σ1 receptor (Homo sapiens, UniProt Q99720), item Cc1ccc2c(n1)C(C)(C)CN2C(=O)[C@H]1CN(Cc2ccccc2)C[C@@H]1C ? < 100 nM

Field: Ki (human σ1 receptor (Homo sapiens, UniProt Q99720)). Entry: CN(C)[C@@H](CNC(=O)N1CC(C)(C)c2ncc(Cl)cc21)c1ccccc1 100 to 500 nM

* * *

SYSTEM UNDER TEST: human σ2/TMEM97 receptor (Homo sapiens, UniProt Q5BJF2)
Construct: expressed in transfected cells; host or cells: HEK-293
Sequence (Q5BJF2 whole entry): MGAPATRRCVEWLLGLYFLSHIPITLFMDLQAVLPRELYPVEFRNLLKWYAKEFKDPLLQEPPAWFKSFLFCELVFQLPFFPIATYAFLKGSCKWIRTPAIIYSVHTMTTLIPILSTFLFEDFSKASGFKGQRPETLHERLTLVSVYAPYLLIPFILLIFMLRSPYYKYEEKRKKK
ASSAY COMMENT: Binding assay to human σ2/TMEM97 receptor ([3H]-DTG)
ASSAY SETUP: transfected HEK-293 membranes, 10 nM [3H]-DTG, 25° C., 120 minutes; read-out: Binding σ-[…] (binding to σ2-receptor expressed as Ki)
pKi: −log10 of the molar value.
Give measured pKi for each item. Keep answers brief.

Given the entry Cc1ccc2c(n1)C(C)(C)CN2C(=O)N1CCC2(CCN(Cc3ccc(F)c(C#N)c3)CC2)C1 , what pKi was observed with human σ2/TMEM97 receptor (Homo sapiens, UniProt Q5BJF2)? > 7.00

Which measured pKi belongs to Cc1ccc2c(n1)C(C)(C)CN2C(=O)[C@H]1CC[C@H](N(C)Cc2ccccc2)CC1 , tested on human σ2/TMEM97 receptor (Homo sapiens, UniProt Q5BJF2)? > 7.00

# returns recorded pKi (system: human σ2/TMEM97 receptor (Homo sapiens, UniProt Q5BJF2)) for Cc1ccc2c(n1)C(C)(C)CN2C(=O)N1CCC2(CCN(Cc3ccccc3)C2)CC1 > 7.00

Give human σ2/TMEM97 receptor (Homo sapiens, UniProt Q5BJF2) pKi for Cc1ccc2c(n1)C(C)(C)CN2C(=O)N1CCC(N(C)Cc2cccc(C#N)c2)CC1 > 7.00

Request: pKi, test system human σ2/TMEM97 receptor (Homo sapiens, UniProt Q5BJF2), entry CC1(C)CN(C(=O)N2CCC3(CCN(Cc4ccccc4F)CC3)C2)c2cccnc21 > 7.00

Reported pKi for human σ2/TMEM97 receptor (Homo sapiens, UniProt Q5BJF2), given Cc1ccc2c(n1)C(C)(C)CN2C(=O)CC1CCN(Cc2ccccc2)CC1 ? 6.30 to 7.00

Identify the measured pKi of CC1(C)CN(C(=O)NC2CC3(CCN(Cc4ccccc4)CC3)C2)c2cccnc21 for human σ2/TMEM97 receptor (Homo sapiens, UniProt Q5BJF2). 6.30 to 7.00

Find the measured pKi: item Cc1ccc2c(n1)C(C)(C)CN2C(=O)N1CCC(CN(C)Cc2ccccc2)CC1 , target or system human σ2/TMEM97 receptor (Homo sapiens, UniProt Q5BJF2). 6.30 to 7.00

Write down the reported pKi of Cc1ccc2c(n1)C(C)(C)CN2C(=O)[C@H]1CC[C@H](N(C)Cc2cccc(F)c2F)CC1 , test system: human σ2/TMEM97 receptor (Homo sapiens, UniProt Q5BJF2). > 7.00

human σ2/TMEM97 receptor (Homo sapiens, UniProt Q5BJF2) / pKi / Cc1ccc2c(n1)C(C)(C)CN2C(=O)N1CCC2(CCN(Cc3ccncc3)CC2)C1 : value? > 7.00

* * *

So I've got a bunch of molecules here, and I need their Ki values.
SYSTEM UNDER TEST: human σ2/TMEM97 receptor (Homo sapiens)
Construct: expressed in transfected cells; host or cells: HEK-293
ASSAY COMMENT: Binding assay to human σ2/TMEM97 receptor ([3H]-DTG)
ASSAY SETUP: transfected HEK-293 membranes, 10 nM [3H]-DTG, 25° C., 120 minutes; read-out: Binding σ-[…] (binding to σ2-receptor expressed as Ki)

Data request, read-out Ki, for Cc1ccc2c(n1)C(C)(C)CN2C(=O)N1CCN(Cc2ccccc2)CC1 [Example 10] > 1000 nM

What does the record list as Ki for Cc1ccc2c(n1)C(C)(C)CN2C(=O)N(C)C[C@@H](c1ccccc1)N(C)C [Example 8] ? > 1000 nM

Report Ki for CN(CCc1ccccc1)C1CCN(C(=O)N2CC(C)(C)c3ncccc32)CC1 [Example 52] please. < 100 nM

Query: Ki; subject: Cc1ccc2c(n1)C(C)(C)CN2C(=O)[C@H]1CC[C@H](N(C)Cc2cc(F)ccc2F)CC1 [Example 173] < 100 nM

What does the record list as Ki for CC1(C)CN(C(=O)NCC2CCN(Cc3ccccc3)CC2)c2cccnc21 [Example 69] ? 100 to 500 nM

Fill in: Ki of Cc1ccc2c(n1)C(C)(C)CN2C(=O)N1CC[C@H](N(C)Cc2ccccc2)C1 [Example 39] is ___ > 1000 nM

What Ki value was documented for this molecule, Cc1ccc2c(n1)C(C)(C)CN2C(=O)N1CCC(N(C)Cc2ccccc2)CC1 [Example 11] ? < 100 nM

I am curious: what Ki value has been reported for Cc1ccc2c(n1)C(C)(C)CN2C(=O)N1CCC2(CCN(Cc3ccccc3)CC2)CC1 [Example 57] ? < 100 nM

* * *

Exercise: state measured Ki for each of the compounds provided.
SYSTEM UNDER TEST: human σ2/TMEM97 receptor (Homo sapiens)
Construct: expressed in transfected cells; host or cells: HEK-293
ASSAY COMMENT: Binding assay to human σ2/TMEM97 receptor ([3H]-DTG)
ASSAY SETUP: transfected HEK-293 membranes, 10 nM [3H]-DTG, 25° C., 120 minutes; read-out: Binding σ-[…] (binding to σ2-receptor expressed as Ki)

Data request, read-out Ki, for Cc1ccc2c(n1)C(C)(C)CN2C(=O)[C@H]1CC[C@H](N(C)Cc2cccc(F)c2)CC1 < 0.1 µM

Given Cc1ccc2c(n1)CCN2C(=O)N1CCC(N(C)Cc2ccccc2)CC1 , state its recorded Ki. 0.1 to 0.5 µM

What value of Ki has been reported for the following compound? CN(Cc1ccccc1)[C@H]1CC[C@H](NC(=O)N2CC(C)(C)c3ncccc32)CC1 < 0.1 µM

Request the reported Ki associated with CN(C)[C@@H](CNC(=O)N1CC(C)(C)c2ncc(F)cc21)c1ccccc1 > 1 µM

Cited source: patent US20240174671A1
